Could you please report measured composite z-score for the items listed next?
- ASSAYED_TARGET: Albumin (Bos taurus) (UniProt P02769)
- Sequence (P02769 whole entry, looked up): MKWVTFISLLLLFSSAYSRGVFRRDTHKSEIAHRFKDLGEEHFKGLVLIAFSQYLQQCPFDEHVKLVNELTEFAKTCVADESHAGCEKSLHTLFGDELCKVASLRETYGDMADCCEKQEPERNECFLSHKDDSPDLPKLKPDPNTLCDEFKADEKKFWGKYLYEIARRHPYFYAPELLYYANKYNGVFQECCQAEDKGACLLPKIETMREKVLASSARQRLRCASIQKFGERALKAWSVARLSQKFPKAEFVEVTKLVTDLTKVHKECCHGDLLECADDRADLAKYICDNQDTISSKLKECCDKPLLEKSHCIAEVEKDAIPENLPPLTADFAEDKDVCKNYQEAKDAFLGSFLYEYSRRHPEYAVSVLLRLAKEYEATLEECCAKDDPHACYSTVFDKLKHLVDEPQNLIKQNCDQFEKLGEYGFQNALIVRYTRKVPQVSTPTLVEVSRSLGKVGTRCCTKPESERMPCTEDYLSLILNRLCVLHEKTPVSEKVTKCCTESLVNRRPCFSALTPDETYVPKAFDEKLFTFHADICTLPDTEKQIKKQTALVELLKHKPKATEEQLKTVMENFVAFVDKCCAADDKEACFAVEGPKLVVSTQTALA
- TEST_METHOD_NOTES: bovine serum albumin binders on microarray, profiling panel, artefact control for SMM control protein annotation, biochemical, small-molecule microarray, Alexa647 label, 635/667 nm fluorescence (AID 1118);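 note: score merges 667 nm emission intensity and signal-to-noise per printed compound spot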
- CONDITIONS_USED: BSA-A647 binding, fluorescence 635 nm, higher = more signal
Could you keep your reply to the number by itself?

-- ask Supply reported composite z-score belonging to this compound: COC(=O)[C@@]1(Cc2ccc(F)cc2)[C@H]2c3cc(C(=O)N4CCCC4)n(C[C@H](O)CO)c3C[C@H]2CN1C(=O)c1ccccc1
-- reply 1.13

-- ask Supply reported composite z-score belonging to this compound: COC(=O)c1ccc(OC)c(/C=C\CC(OC(=O)c2ccncc2)c2ccccc2)c1 (stereo not given)
-- reply -0.311

-- ask Supply reported composite z-score belonging to this compound: C#CCN(C(=O)OC(C)(C)C)[C@H](CO)c1ccccc1
-- reply 0.632

-- ask Supply reported composite z-score belonging to this compound: CC(=O)NCCCC[C@@H]1NC(=O)[C@H]2C[C@@H](C(=O)O)[C@@H](c3cccc(OCCO)c3)N2C1=O
-- reply 0.757

-- ask Supply reported composite z-score belonging to this compound: COc1cccc(C)c1NC(=O)O[C@H]1[C@H](OC(=O)Nc2ccccc2-c2ccccc2)[C@@H](OC(=O)Nc2ccccc2-c2ccccc2)[C@@H](OC)O[C@@H]1CO
-- reply 0.848

-- ask Supply reported composite z-score belonging to this compound: O=C(c1ccccc1)N1Cc2ccccc2C[C@@]2(N=C(c3ccc(OCCCO)cc3)O[C@H]2c2ccccc2)C1=O
-- reply -0.106

-- ask Supply reported composite z-score belonging to this compound: C=CC[C@]1(C(=O)NCCN2CCOCC2)N=C(c2ccc(OCCCO)cc2)O[C@H]1c1ccccc1
-- reply -0.051

-- ask Supply reported composite z-score belonging to this compound: C=C(COC)C(=O)CC[C@H](OC(C)=O)c1ccc(CO)o1
-- reply 0.485

-- ask Supply reported composite z-score belonging to this compound: [N-]=[N+]=Nc1ccccc1C[C@@]1(C(=O)NCC(O)CO)N=C(c2ccc(OCCCO)cc2)O[C@@H]1c1ccccc1N=[N+]=[N-] (stereo not given in full)
-- reply 0.874

-- ask Supply reported composite z-score belonging to this compound: C=CC[C@@]1(C(=O)NCCCOC)N=C(c2ccc(OCCCO)cc2)O[C@@H]1c1ccccc1CN=[N+]=[N-]
-- reply 0.829

-- ask Supply reported composite z-score belonging to this compound: CN1C(=O)C2C=CC(C(O)c3cccs3)N(N(c3ccccc3)c3ccccc3)C2C1=O (stereo not given)
-- reply 0.994

-- ask Supply reported composite z-score belonging to this compound: COCCOC(=O)N1C(=O)[C@@]2(c3cc(C#CC4=CCCCC4)ccc31)[C@H](c1ccc(O)cc1)N1[C@H](c3ccccc3)[C@H](c3ccccc3)OC(=O)[C@H]1[C@@H]2C(=O)N1CCc2cc(OC)c(OC)cc2C1
-- reply 0.699

-- ask Supply reported composite z-score belonging to this compound: CC(C)(C)OC(=O)CC[C@@]1(C(=O)N2CCOCC2)N=C(c2ccc(OCCCO)cc2)O[C@@H]1c1ccccc1CN=[N+]=[N-]
-- reply 0.966

-- ask Supply reported composite z-score belonging to this compound: COC(=O)[C@@]1(Cc2ccc(F)cc2)[C@H]2c3cc(C(=O)N(C)C)n(Cc4ccc(C(F)(F)F)nc4)c3C[C@H]2CN1C(=O)c1ccccc1
-- reply 0.98

-- ask Supply reported composite z-score belonging to this compound: CC[C@@H](O[Si](C#C[Si](C(C)C)(C(C)C)C(C)C)(C(C)C)C(C)C)c1cn([C@H](CO)Cc2ccccc2)nn1
-- reply 0.239
